Provide the recorded Aggregation for the entries that follow.
Tested on: Cavia porcellus
Experiment: Compound was tested ex vivo for it''s inhibition of U-46619 induced platelet aggregation in the guinea pig after 2 hr of administration at dose 10 mg/kg
Assay type: functional
I only need the number, in %, no unit after it.

Query: // query Aggregation value for entry O=C(O)c1ccc2c(c1)C(SCCNS(=O)(=O)c1ccccc1)c1ccccc1CS2 (centres undefined)
Response: 0

Query: // query Aggregation value for entry O=C(O)c1ccc2c(c1)C(SCCNC(=O)c1ccccc1O)c1ccccc1CO2 (centres undefined)
Response: 64.5

Query: // query Aggregation value for entry O=C(O)c1ccc2c(c1)C(SCCNC(=O)c1ccccc1)c1ccccc1CO2 (centres undefined)
Response: 68.3

Query: // query Aggregation value for entry O=C(NCCSC1c2ccccc2COc2ccc(C(=O)O)cc21)OCc1ccccc1 (centres undefined)
Response: 8.7

====

Test system: Cavia porcellus
Test: Inhibitory effect of the compounds on U-46619-induced platelet aggregation ex vivo in guinea pig at the dose of 10 mg/kg 4 hr after oral administration
Format: functional
Doc: threshold 2% (exclusive). Items with Platelet aggregation beneath it return fulfilled; others return not fulfilled.

Query: Does this compound meet the criterion Platelet aggregation < 2%? O=C(O)c1ccc2c(c1)C(SCCNS(=O)(=O)c1cccs1)c1ccccc1CO2 (stereo unspecified)
Response: not fulfilled

Query: Does this compound meet the criterion Platelet aggregation < 2%? O=C(O)COc1ccc(CCNS(=O)(=O)c2ccccc2)cc1 [SULOTROBAN]
Response: not fulfilled

Query: Does this compound meet the criterion Platelet aggregation < 2%? O=C(O)c1ccc2c(c1)C(SCCNS(=O)(=O)c1ccccc1)c1ccccc1CO2 (stereo unspecified)
Response: not fulfilled

Query: Does this compound meet the criterion Platelet aggregation < 2%? O=C(O)c1ccc2c(c1)C(SCCNS(=O)(=O)/C=C/c1ccccc1)c1ccccc1CO2 (single isomer, unassigned; (+))
Response: not fulfilled

Query: Does this compound meet the criterion Platelet aggregation < 2%? O=C(NCCSC1c2ccccc2COc2ccc(C(=O)O)cc21)OCc1ccccc1 (stereo unspecified)
Response: not fulfilled

Query: Does this compound meet the criterion Platelet aggregation < 2%? O=C(O)c1ccc2c(c1)C(SCCNS(=O)(=O)c1ccccc1)c1ccccc1CS2 (stereo unspecified)
Response: fulfilled

====

Biological target: Thromboxane-A synthase (Homo sapiens)
Test: Inhibitory activity against thromboxane A2 synthase obtained from bovine platelet microsomes at 10 uM
Details: Bos taurus, target entry is the homologue from another species
Provide the recorded inhibition for the entries that follow.
I only need the number, in %, no unit after it.

Query: Look up inhibition with Thromboxane-A synthase (Homo sapiens) for this molecule: Cc1ccc2c(c1)C(SCCNS(=O)(=O)c1ccccc1)c1ccccc1CO2 (centres undefined)
Response: -10

Query: Look up inhibition with Thromboxane-A synthase (Homo sapiens) for this molecule: O=C(NCCSC1c2ccccc2COc2ccc(C(=O)O)cc21)Nc1ccccc1 (centres undefined)
Response: 58

Query: Look up inhibition with Thromboxane-A synthase (Homo sapiens) for this molecule: O=C(O)c1ccc2c(c1)C(SCCNS(=O)(=O)c1ccc(F)cc1)c1ccccc1CO2 (centres undefined)
Response: 33

Query: Look up inhibition with Thromboxane-A synthase (Homo sapiens) for this molecule: O=C(O)c1ccc2c(c1)C(SCCNS(=O)(=O)c1ccccc1)c1cc(Br)ccc1CO2 (centres undefined)
Response: 6

Query: Look up inhibition with Thromboxane-A synthase (Homo sapiens) for this molecule: O=C(O)Cc1ccc2c(c1)C(SCCNS(=O)(=O)c1ccccc1)c1ccccc1CO2 (centres undefined)
Response: 13

Query: Look up inhibition with Thromboxane-A synthase (Homo sapiens) for this molecule: O=C(O)c1ccc2c(c1)C(SCCNS(=O)(=O)c1ccc(C(F)(F)F)cc1)c1ccccc1CO2 (centres undefined)
Response: -9

Query: Look up inhibition with Thromboxane-A synthase (Homo sapiens) for this molecule: O=C(O)c1ccc2c(c1)C(SCCNC(=O)c1ccccc1O)c1ccccc1CO2 (centres undefined)
Response: 53

Query: Look up inhibition with Thromboxane-A synthase (Homo sapiens) for this molecule: O=C(O)c1ccc2c(c1)C(SCCNS(=O)(=O)c1ccccc1)c1ccccc1CC2 (centres undefined)
Response: 68

Query: Look up inhibition with Thromboxane-A synthase (Homo sapiens) for this molecule: O=C(O)c1ccc2c(c1)C(SCCNS(=O)(=O)c1ccc(Cl)cc1)c1ccccc1CO2 (centres undefined)
Response: 79
